Biological target: RARα (Homo sapiens, UniProt P10276)
Sequence (P10276 1-462): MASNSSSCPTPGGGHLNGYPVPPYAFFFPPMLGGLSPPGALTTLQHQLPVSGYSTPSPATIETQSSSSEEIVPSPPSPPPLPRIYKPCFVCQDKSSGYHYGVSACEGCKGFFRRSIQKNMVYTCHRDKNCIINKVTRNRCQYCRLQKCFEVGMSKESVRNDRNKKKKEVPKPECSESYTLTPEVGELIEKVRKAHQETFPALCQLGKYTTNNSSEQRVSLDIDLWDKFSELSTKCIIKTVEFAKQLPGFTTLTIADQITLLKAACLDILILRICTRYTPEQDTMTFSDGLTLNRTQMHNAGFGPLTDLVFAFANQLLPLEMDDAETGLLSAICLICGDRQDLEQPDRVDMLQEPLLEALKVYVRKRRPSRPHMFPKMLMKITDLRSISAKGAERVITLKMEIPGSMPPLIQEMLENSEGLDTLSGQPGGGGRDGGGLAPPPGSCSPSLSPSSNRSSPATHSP
Test: Agonist activity on RARα, dual luciferase reporter gene assay in transfected HEK-293 cells
Settings: 24 h incubation, firefly/Renilla luciferase signal
Protocol: • 1. Day 1: Cell culture. The culture dish was treated with trypsin, and then cells at an appropriate concentration were inoculated into 10 mL of culture medium. Cell culture conditions: 37° C., 5% CO2, humid environment. • 2. Day 3: Transfection with FuGENE transfection reagent. […] Day 5: Plate reading. […]
This listing pairs compounds with measured EC50.
# output: numeric value plus its unit

Worked examples, 3 compounds total:
{"compound": "C[Si](C)(C)c1cc(-c2cc(-c3ccc(C(=O)O)cc3)ccc2OCCO)ccc1N1CCCC1 [Compound I-1]", "EC50": "64 nM"}
{"compound": "C[Si](C)(C)c1cc(-c2cc(-c3ccc(C(=O)O)cc3)ccc2OCCCCO)ccc1N1CCCC1 [Compound I-3]", "EC50": "382 nM"}
{"compound": "C[Si](C)(C)c1cc(-c2cc(-c3ccc(C(=O)O)cc3)ccc2OCCCO)ccc1N1CCCC1 [Compound I-2]", "EC50": "15.5 nM"}

Please look at the following compound next.
[Q] Name the recorded EC50 for C[Si]1(C)CC[Si](C)(C)c2cc(-c3cc(-c4ccc(C(=O)O)cc4)ccc3OCCO)ccc21 [Compound I-5] .
[A] 18.5 nM
